# target.or.system: CFTR-mediated chloride transport in human intestinal epithelial enteroid cells (Homo sapiens)
# assay.name: Membrane potential dye, Enteroid Assay A
# Format: cell-based
# reported.conditions: % of chloride transport of triple combination control (3 μM N-[(6-amino-2-pyridyl)sulfonyl]-6-(3-fluoro-5-isobutoxy-phenyl)-2-[(4S)-2,2,4-trimethylpyrrolidin-1-yl]pyridine-3-carboxamide, 3 μM tezacaftor, 300 nM acute ivacaftor)
endpoint.label: Ent. A Max Activity (%)

1. Cc1cccc(C)c1-c1cc2nc(n1)NS(=O)(=O)c1cccc(c1)NC(=O)[C@@H]1C[C@@H](CN(CCCC(C)(C)C)C1)O2	++ (++ is 30-60%)
2. Cc1cccc(C)c1-c1cc2nc(n1)NS(=O)(=O)c1cccc(c1)NC(=O)[C@H]1CCC[C@H](C1)O2 (single isomer, unassigned) [Compound 70]	++ (++ is 30-60%)
3. Cc1cccc(C)c1-c1cc2nc(n1)NS(=O)(=O)c1cccc(c1)NC(=O)[C@H]1CCC[C@H](C1)O2 (single isomer, unassigned) [Compound 71]	+++ (+++ is >60%)
4. Cc1cccc(C)c1-c1cc2nc(n1)NS(=O)(=O)c1cccc(c1)NC(=O)[C@@H]1C[C@@H](CN(CCC(C)(C)C3CC3)C1)O2	+++ (+++ is >60%)
5. Cc1cccc(C)c1-c1cc2nc(n1)NS(=O)(=O)c1cccc(c1)NC(=O)[C@@H]1C[C@@H](CN(CCC3CCOCC3)C1)O2	++ (++ is 30-60%)

---

# target.or.system: CFTR-mediated chloride transport in human intestinal epithelial enteroid cells (Homo sapiens, UniProt P13569)
# Sequence (P13569 with tags, fused parts or gaps DEL508-508): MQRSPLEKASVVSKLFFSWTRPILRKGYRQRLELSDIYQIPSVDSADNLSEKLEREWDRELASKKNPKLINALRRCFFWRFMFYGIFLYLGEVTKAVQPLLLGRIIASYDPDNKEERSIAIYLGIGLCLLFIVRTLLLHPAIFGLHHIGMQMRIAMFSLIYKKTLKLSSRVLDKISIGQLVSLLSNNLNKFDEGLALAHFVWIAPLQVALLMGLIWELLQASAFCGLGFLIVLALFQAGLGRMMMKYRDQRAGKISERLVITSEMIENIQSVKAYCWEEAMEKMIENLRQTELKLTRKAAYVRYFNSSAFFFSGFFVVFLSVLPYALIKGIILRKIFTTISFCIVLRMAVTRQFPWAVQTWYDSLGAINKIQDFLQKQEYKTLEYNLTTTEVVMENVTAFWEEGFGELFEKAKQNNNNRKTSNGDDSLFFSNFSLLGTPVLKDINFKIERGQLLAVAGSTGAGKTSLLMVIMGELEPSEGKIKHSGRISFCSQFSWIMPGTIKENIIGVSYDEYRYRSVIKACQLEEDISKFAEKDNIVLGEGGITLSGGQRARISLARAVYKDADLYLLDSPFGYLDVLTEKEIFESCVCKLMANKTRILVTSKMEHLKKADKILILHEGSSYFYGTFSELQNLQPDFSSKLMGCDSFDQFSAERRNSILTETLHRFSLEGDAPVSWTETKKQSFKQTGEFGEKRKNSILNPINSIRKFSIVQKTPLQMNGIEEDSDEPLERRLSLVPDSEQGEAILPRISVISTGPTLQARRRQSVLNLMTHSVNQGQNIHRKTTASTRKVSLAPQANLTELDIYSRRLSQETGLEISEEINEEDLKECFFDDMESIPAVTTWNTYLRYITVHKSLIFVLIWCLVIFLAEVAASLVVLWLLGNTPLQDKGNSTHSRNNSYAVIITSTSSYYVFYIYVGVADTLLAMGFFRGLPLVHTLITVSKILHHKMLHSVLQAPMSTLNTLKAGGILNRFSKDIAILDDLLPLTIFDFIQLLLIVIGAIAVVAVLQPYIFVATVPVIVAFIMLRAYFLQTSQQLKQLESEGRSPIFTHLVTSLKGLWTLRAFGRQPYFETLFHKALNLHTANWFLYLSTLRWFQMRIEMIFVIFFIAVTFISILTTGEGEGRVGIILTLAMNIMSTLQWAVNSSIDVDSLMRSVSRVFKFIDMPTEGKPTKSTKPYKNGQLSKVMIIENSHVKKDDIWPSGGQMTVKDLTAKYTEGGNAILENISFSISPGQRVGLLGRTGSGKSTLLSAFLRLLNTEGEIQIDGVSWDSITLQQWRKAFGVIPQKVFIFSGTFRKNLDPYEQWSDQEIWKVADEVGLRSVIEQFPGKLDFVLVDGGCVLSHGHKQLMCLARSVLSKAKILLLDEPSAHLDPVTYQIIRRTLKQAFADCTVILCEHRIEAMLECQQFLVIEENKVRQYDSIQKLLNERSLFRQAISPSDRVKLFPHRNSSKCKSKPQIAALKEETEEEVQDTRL
# assay.name: Membrane potential dye, Enteroid Assay A
# Assay type: cell-based
# reported.conditions: % of chloride transport of triple combination control (3 μM N-[(6-amino-2-pyridyl)sulfonyl]-6-(3-fluoro-5-isobutoxy-phenyl)-2-[(4S)-2,2,4-trimethylpyrrolidin-1-yl]pyridine-3-carboxamide, 3 μM tezacaftor, 300 nM acute ivacaftor)
endpoint.label: Ent. A Max Activity (%)

1) Cc1cccc(C)c1-c1cc2cc(n1)NS(=O)(=O)c1cccc(c1)NC(=O)c1cccc(c1)O2	++ (++ is 30-60%)
2) Cc1cccc(C)c1-c1cc2nc(n1)NS(=O)(=O)c1cccc(c1)NC(=O)[C@@H]1C[C@H](O2)C(=O)N(CCC(C)(C)C)C1 [Compound 89]	+ (+ is <30%)
3) Cc1ccc2cc1Oc1cc(-c3c(C)cccc3C)nc(n1)NS(=O)(=O)c1cccc(c1)NC(=O)CC2	+++ (+++ is >60%)
4) Cc1cccc(C)c1-c1cc2nc(n1)NS(=O)(=O)c1cccc(c1)NC(=O)[C@H]1CCC[C@H](C1)O2 (single isomer, unassigned) [Compound 68]	++ (++ is 30-60%)
5) Cc1cccc(C)c1-c1cc2nc(n1)NS(=O)(=O)c1cccc(c1)NC(=O)[C@@H]1C[C@@H](CN(C(=O)C3C(C)(C)C3(C)C)C1)O2	++ (++ is 30-60%)
6) Cc1cccc(C)c1-c1cc2nc(n1)NS(=O)(=O)c1cccc(c1)NC(=O)[C@@H]1C[C@@H](CN(C(=O)OC(C)(C)C)C1)O2 (single isomer, unassigned)	+++ (+++ is >60%)
7) Cc1cccc(C)c1-c1cc2nc(n1)NS(=O)(=O)c1cccc(c1)NC(=O)[C@@H]1C[C@H](O2)C(=O)N(CCC(C)(C)C)C1 [Compound 91]	+ (+ is <30%)
8) Cc1cccc(C)c1-c1cc2nc(n1)NS(=O)(=O)c1cccc(c1)NC(=O)c1cccc(c1)O2	+++ (+++ is >60%)
9) Cc1cccc(C)c1-c1cc2nc(n1)NS(=O)(=O)c1cccc(c1)NC(=O)C1CC(CN(C(=O)OC(C)(C)C)C1)O2 (stereo not drawn) [Compound 123]	++ (++ is 30-60%)

---

# target.or.system: F508del in NIH 3T3 cells (Homo sapiens, UniProt P13569, DEL508-508)
# Construct: expressed in transfected cells
# Sequence (P13569 with tags, fused parts or gaps DEL508-508): as above
# assay.name: 3T3 assay: membrane potential optical assay for F508del correction
# Format: cell-based, mouse
# reported.conditions: F508del NIH 3T3 cells, compound incubation 18-24 hours at 37° C., forskolin activation; read-out: 3T3 EC50
pEC50: −log10 of the molar value.
Known pEC50 of a selection of compounds
endpoint.label: pEC50

1. O=C1Nc2cccc(c2)S(=O)(=O)Nc2nc(cc(-c3ccccc3O)n2)Oc2cccc1c2	4.52 to 5.52
2. Cc1cccc(C)c1-c1cc2nc(n1)NS(=O)(=O)c1cccc(c1)NC(=O)c1cccc(c1C)O2 (racemic) [Compound 59]	> 6.00
3. Cc1cccc(C)c1-c1cc2nc(n1)NS(=O)(=O)c1cccc(c1)NC(=O)c1cc(ccc1N1CCNCC1)O2	4.52 to 5.52
4. CNCCN(C)c1ccc2cc1C(=O)Nc1cccc(c1)S(=O)(=O)Nc1nc(cc(-c3c(C)cccc3C)n1)O2	4.52 to 5.52
5. Cc1cccc(C)c1-c1cc2nc(n1)NS(=O)(=O)c1cccc(c1)NC(=O)[C@H]1C[C@@H](CN(C(=O)NC(C)(C)C)C1)O2	4.52 to 5.52
6. O=C1Nc2cccc(c2)S(=O)(=O)Nc2nc(cc(-c3ccccc3)n2)Oc2cccc1c2	5.52 to 6.00
7. Cc1cccc(C)c1-c1cc2nc(n1)NS(=O)(=O)c1cccc(c1)NC(=O)[C@@H]1C[C@@H](CN(C(=O)OC(C)(C)C)C1)O2 (single isomer, unassigned)	> 6.00
8. Cc1cccc(C)c1-c1cc2nc(n1)NS(=O)(=O)c1cccc(c1)NC(=O)c1cc(cc(N3CCNCC3)c1)O2	4.52 to 5.52
9. Cc1cccc(C)c1-c1cc2nc(n1)NS(=O)(=O)c1cccc(c1)NC(=O)[C@@H]1C[C@@H](CN(CC(C3CC3)C3CC3)C1)O2	> 6.00
10. O=C1Nc2cccc(c2)S(=O)(=O)Nc2nc(cc(-c3ccco3)n2)Oc2cccc1c2	4.52 to 5.52

---

# target.or.system: CFTR-mediated chloride transport in human intestinal epithelial enteroid cells (Homo sapiens)
# assay.name: Membrane potential dye, Enteroid Assay A
# Type: cell-based
# reported.conditions: enteroid cells, 18-24 hours incubation, acute 10 μM forskolin and 300 nM ivacaftor; read-out: Ent. A EC50
pEC50: −log10 of the molar value.
endpoint.label: pEC50

1. Cc1cccc(C)c1-c1cc2nc(n1)NS(=O)(=O)c1cccc(c1)NC(=O)[C@@H]1C[C@@H](CN(CCC(C)(C)C3CC3)C1)O2	> 6.00
2. Cc1cccc(C)c1-c1cc2nc(n1)NS(=O)(=O)c1cccc(c1)NC(=O)[C@@H]1C[C@@H](CN(CC3C(C)(C)C3(C)C)C1)O2	> 6.00
3. Cc1cc2cc(c1)C(=O)Nc1cccc(c1)S(=O)(=O)Nc1nc(cc(-c3c(C)cccc3C)n1)O2	5.52 to 6.00
4. Cc1cccc(C)c1-c1cc2nc(n1)NS(=O)(=O)c1cccc(c1)NC(=O)[C@@H]1C[C@@H](CN(C(=O)OC(C)(C)C)C1)O2 (single isomer, unassigned)	> 6.00
5. Cc1cccc(C)c1-c1cc2nc(n1)NS(=O)(=O)c1cccc(n1)NC(=O)[C@@H]1C[C@@H](CN(C(=O)OC(C)(C)C)C1)O2 (single isomer, unassigned)	> 6.00
6. Cc1cccc(C)c1-c1cc2nc(n1)NS(=O)(=O)c1cccc(c1)NC(=O)[C@@H]1C[C@@H](CN(CCC3(C(F)(F)F)CC3)C1)O2	> 6.00
7. Cc1cccc(C)c1-c1cc2nc(n1)NS(=O)(=O)c1cccc(c1)NC(=O)[C@H]1CCC[C@H](C1)O2 (single isomer, unassigned) [Compound 68]	4.52 to 5.52
8. Cc1cccc(C)c1-c1cc2nc(n1)NS(=O)(=O)c1cccc(c1)NC(=O)[C@H]1C[C@@H](CN(CCC(C)(C)C)C1)O2	5.52 to 6.00
9. Cc1cccc(C)c1-c1cc2nc(n1)NS(=O)(=O)c1cccc(c1)NC(=O)CCc1cccc(c1)O2	4.52 to 5.52
10. Cc1cccc(C)c1-c1cc2nc(n1)NS(=O)(=O)c1cccc(c1)NC(=O)[C@@H]1C[C@@H](CN(C(=O)NC(C)(C)C)C1)O2	4.52 to 5.52
11. Cc1cccc(C)c1-c1cc2nc(n1)NS(=O)(=O)c1cccc(c1)NC(=O)Cc1cccc(c1)O2	4.52 to 5.52
12. Cc1cccc(C)c1-c1cc2nc(n1)NS(=O)(=O)c1cccc(c1)NC(=O)[C@@H]1C[C@@H](CN(CC(C)C(F)(F)F)C1)O2 (stereo partly drawn)	> 6.00

---

# target.or.system: CFTR-mediated chloride transport in human intestinal epithelial enteroid cells (Homo sapiens, UniProt P13569)
# assay.name: Membrane potential dye, Enteroid Assay A
# Format: cell-based
# reported.conditions: % of chloride transport of triple combination control (3 μM N-[(6-amino-2-pyridyl)sulfonyl]-6-(3-fluoro-5-isobutoxy-phenyl)-2-[(4S)-2,2,4-trimethylpyrrolidin-1-yl]pyridine-3-carboxamide, 3 μM tezacaftor, 300 nM acute ivacaftor)
endpoint.label: Ent. A Max Activity (%)

1) Cc1cccc(C)c1-c1cc2nc(n1)NS(=O)(=O)c1cccc(c1)NC(=O)[C@@H]1C[C@@H](CN(C(=O)OCCC(C)C)C1)O2	+++ (+++ is >60%)
2) CCCCCOC(=O)N1C[C@@H]2C[C@H](C1)C(=O)Nc1cccc(c1)S(=O)(=O)Nc1nc(cc(-c3c(C)cccc3C)n1)O2	+++ (+++ is >60%)
